Assay: yeast V-ATPase proton transport modulators, S. cerevisiae, pHLuorin, HTS validation (AID 504600)
Conditions: S. cerevisiae pHLuorin cytosolic pH, at 10 µM
Activity calls are given as the source filed them. No stated cut-off is given here; in the data, active means response above about 15%; inactive means the rest.
Form entry, call: pick from active, inactive

Below are worked cases with known answers.
{"compound": "COP(=O)(OC)C(O)C(Cl)(Cl)Cl (stereo not given)", "assigned.label": "inactive"}
{"compound": "CC(C)CC12CN3CCN(CC(C3)C1O)C2 (stereo not given)", "assigned.label": "inactive"}
{"compound": "NCCc1ccc(O)cc1", "assigned.label": "inactive"}

Hi team, can someone confirm the assay call for Cn1c(O)c(C=NCCc2c[nH]c3ccccc23)c(=O)n(C)c1=O ? inactive

Per the assay record, what outcome was assigned to c1ccc2c3c([nH]c2c1)CNCC3 ? inactive

Hello, I am checking results. What call was entered for CC12CN3CC(C)(CN(C1)C3c1cccs1)C2=O (stereo not given) ? inactive

Recorded call for NNC(=O)c1ccc(Cl)cc1 ? inactive
